# Target desc: T1, 인간 OX40L 단백질 (OX40L-his; ACROBiosystems Cat# OXL-H52Q8) (human, UniProt P23510 51-183)
# T1 sequence: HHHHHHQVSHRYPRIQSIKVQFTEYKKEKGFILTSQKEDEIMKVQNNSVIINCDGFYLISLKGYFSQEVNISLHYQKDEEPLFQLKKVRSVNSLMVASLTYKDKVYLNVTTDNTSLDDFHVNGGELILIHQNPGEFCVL
# Test details: cell-based or functional assay
Measured endpoint: IC50 (μg/mL), OX40L blockade assay (µg/mL)
# value in µg/mL; strip the unit string

# input Query: IC50 (μg/mL), OX40L blockade assay; subject: 항 OX40L 항체 10H07 (antibody, human IgG4 S228P, kappa, V domains shown) VH: QVYLQQSGAELVKPGASVKLSCKASGYTFTDYWMHWVKQRPGQGLEWIGEIDPGNGRTNYNEKFKNKATLSVDKSSNTAYMQFSSLTSEDSAVFYCASEGAGRGFPYWGQGTLVTVSA VL: DVVLTQTPLSLPVSLGDQASISCRSSQSLVHSNGNTYLHWYLQKPGQSPKLLIYKVSNRFSGVPDRFSGSGSGTDFTLKISRVEAEDLGVYFCSQSTHVPWTFGGGTKLEIKR
# output 0.061
